molecular target: rat TAAR1 (Rattus norvegicus (Rat));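 also: membranes from HEK293 cells stably transfected with rat TAAR1, tritiated TAAR1 radioligand, 1 h incubation at 4 °C, nonspecific binding determined with excess unlabeled ligand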
Sequence (Q923Y9 whole entry): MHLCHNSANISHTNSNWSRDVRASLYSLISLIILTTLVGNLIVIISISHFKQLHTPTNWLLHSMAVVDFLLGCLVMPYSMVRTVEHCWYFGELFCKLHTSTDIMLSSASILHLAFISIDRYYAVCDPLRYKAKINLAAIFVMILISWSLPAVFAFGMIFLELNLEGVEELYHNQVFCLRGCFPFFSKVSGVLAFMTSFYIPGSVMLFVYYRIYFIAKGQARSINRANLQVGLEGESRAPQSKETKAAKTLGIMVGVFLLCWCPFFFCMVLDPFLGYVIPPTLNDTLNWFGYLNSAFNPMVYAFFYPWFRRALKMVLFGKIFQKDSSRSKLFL
pKd: −log10 of the molar value.
measureName: pKd

The measured pKd that CCN(C[C@H]1COC(N)=N1)c1ccccc1 [reference compound] showed for rat TAAR1 (Rattus norvegicus (Rat)) is ~8.64

###

target: mouse TAAR1 (Mus musculus (Mouse), UniProt Q923Y8); experiment: Radioligand binding assay on mouse TAAR1
Sequence (Q923Y8 whole entry): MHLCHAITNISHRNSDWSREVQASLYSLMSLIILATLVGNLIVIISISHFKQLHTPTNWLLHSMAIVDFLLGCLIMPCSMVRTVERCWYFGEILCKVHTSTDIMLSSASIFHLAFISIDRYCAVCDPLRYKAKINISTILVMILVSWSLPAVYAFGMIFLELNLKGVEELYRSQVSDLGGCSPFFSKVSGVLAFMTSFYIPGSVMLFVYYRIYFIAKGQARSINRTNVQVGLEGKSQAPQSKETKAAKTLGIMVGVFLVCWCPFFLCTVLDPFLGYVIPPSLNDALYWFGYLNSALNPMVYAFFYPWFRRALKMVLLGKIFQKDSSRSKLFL
Recorded measurements of Ki, one per entry
Number only, in nM; omit the unit.

{"molecule": "FC(F)(F)c1ccc(Nc2ccc([C@H]3O[C@@H]4CN[C@H]3C4)cc2)cn1 [Example 61]", "measureName": "Ki", "unitDescriptor": "nM", "testResult": 7.7}
{"molecule": "O=C(NCc1ccc(C(F)(F)F)cc1)c1ccc([C@H]2O[C@@H]3CN[C@H]2C3)cc1 [Example 63]", "measureName": "Ki", "unitDescriptor": "nM", "testResult": 3.4}

As a next step, examine the molecule that follows.
mouse TAAR1 (Mus musculus (Mouse), UniProt Q923Y8) Ki of CC(C)Cc1cc(C(=O)Nc2ccc([C@@H]3O[C@H]4CN[C@@H]3C4)cc2)[nH]n1 [Example 101] is 5.7

###

biological target: mouse TAAR1 (Mus musculus (Mouse)); test: Radioligand binding assay on mouse TAAR1
Sorting guide: entries reporting Ki beneath 20 nM go in the 1.0 pile, the rest go in the 0.0 pile.

// below: answered compounds
{"compound": "O=C(NCc1ccc(Cl)cc1)c1ccc([C@H]2O[C@@H]3CN[C@H]2C3)cc1", "classification": 1.0}
{"compound": "O=C(COCC(F)(F)F)Nc1ccc([C@@H]2O[C@H]3CN[C@@H]2C3)cc1", "classification": 1.0}
{"compound": "O=C(COCCC(F)(F)F)Nc1ccc([C@@H]2O[C@H]3CN[C@@H]2C3)cc1", "classification": 1.0}
{"compound": "CCOc1ccc(NC(=O)c2ccc([C@@H]3O[C@H]4CN[C@@H]3C4)cc2)cn1", "classification": 0.0}
{"compound": "CCOc1ccc(C(=O)Nc2ccc([C@H]3O[C@@H]4CN[C@H]3C4)cc2)cn1", "classification": 1.0}

Enquiry: Lab note: Ki threshold 20 nM. Does this compound come in strictly under it? CCc1n[nH]c(C(=O)Nc2ccc([C@@H]3O[C@H]4CN[C@@H]3C4)cc2)c1Br
Return: 1.0

Enquiry: Hi there! Is Ki for CCCc1n[nH]c(C(=O)Nc2ccc([C@H]3O[C@@H]4CN[C@H]3C4)cc2)c1Cl below 20 nM, do you know?
Return: 1.0

Enquiry: Field: below-cutoff. Rule: recorded Ki strictly less than 20 nM. Subject: FC(F)(F)COc1ccnc(Nc2ccc([C@H]3O[C@@H]4CN[C@H]3C4)cc2)n1
Return: 1.0

###

target: mouse TAAR1 (Mus musculus (Mouse), UniProt Q923Y8); assay: Radioligand binding assay on mouse TAAR1; settings: read-out: Ki (μM) mouse; mouse TAAR1, HEK-293 membranes; first value of cell mouse/rat
API: label(entry) gives Yes if the entry's Ki is strictly smaller than 0.006 µM; on equality or larger values it gives No.

Enquiry: Here's an entry: CC(C)c1n[nH]c(C(=O)Nc2ccc([C@@H]3O[C@H]4CN[C@@H]3C4)cc2)c1Cl . Is its Ki below 0.006 µM?
Return: No

Enquiry: # check: Ki < 0.006 µM for O=C(Nc1ccc([C@@H]2O[C@H]3CN[C@@H]2C3)cc1)c1[nH]nc(C2CC2)c1F
Return: Yes

Enquiry: Please state whether Ki is below 0.006 µM for CC(C)c1n[nH]c(C(=O)Nc2ccc([C@@H]3O[C@H]4CN[C@@H]3C4)cc2)c1F
Return: No

Enquiry: Threshold test, Ki < 0.006 µM: CCc1n[nH]c(C(=O)Nc2ccc([C@@H]3O[C@H]4CN[C@@H]3C4)cc2)c1C
Return: No

Enquiry: Is the reported Ki for CCCCc1n[nH]c(C(=O)Nc2ccc([C@@H]3O[C@H]4CN[C@@H]3C4)cc2)c1F strictly below 0.006 µM?
Return: Yes

Enquiry: Strictly below 0.006 µM: is that where Ki of O=C(Nc1ccc([C@@H]2O[C@H]3CN[C@@H]2C3)cc1)c1[nH]nc(C2CC2)c1Cl sits?
Return: Yes
